# SYSTEM TESTED: HLA-A*33:01
# TEST NAME: IEDB peptide-MHC binding, purified MHC/competitive/radioactivity; filed as Kd, often an IC50 or EC50 that approximates it; bounds were set here for any values at or beyond the usual limits of such assays
# CONDITION INFO: source organism: Vaccinia virus WR
MEASURED ATTRIBUTE: Kd (nM)
Report as a plain number; the unit nM is understood.

Examples from the recorded data:
Per the record, IIVLFQRFLR has Kd of 13.1

Measured Kd of SLFKNVRLLK : 2210

Entry NSCSIGNVTR ; Kd = 16.1

Consider the record given below.
The sequence identified as VFKDSFLRK registered its Kd at 1880

---

# SYSTEM TESTED: HLA-B*07:02
# TEST NAME: IEDB peptide-MHC binding, purified MHC/direct/fluorescence; filed as Kd, often an IC50 or EC50 that approximates it; bounds were set here for any values at or beyond the usual limits of such assays
# CONDITION INFO: source organism: Escherichia coli O157:H7
pKd: −log10 of the molar value.
MEASURED ATTRIBUTE: pKd

For orientation, consider the following solved cases.
Form: sequence = ATISYRIKL ; pKd = ≤ 4.70

Reported pKd of DISPTNIPL : ≤ 4.70

Continue with the next sequence.
Record QMRVRYYGL , field pKd: ≤ 4.70

---

# SYSTEM TESTED: HLA-B*15:01
# TEST NAME: IEDB peptide-MHC binding, purified MHC/competitive/fluorescence; bounds were set here for any values at or beyond the usual limits of such assays
# CONDITION INFO: source organism: Zaire ebolavirus
Below, each entry is listed with its recorded IC50.

IC50 measured on AMNEENRFV = ≥ 220 µM

IC50 measured on RTFSIPLGV = ≥ 221 µM

Here is another sequence to look at.
Notebook: YFGPAAEGI , IC50 read as ≥ 197 µM

---

# SYSTEM TESTED: HLA-A*02:03
# TEST NAME: IEDB peptide-MHC binding, purified MHC/competitive/radioactivity; filed as Kd, often an IC50 or EC50 that approximates it; bounds were set here for any values at or beyond the usual limits of such assays
# CONDITION INFO: source organism: Vaccinia virus WR
Listed below: pKd values for each entry.
Please treat pKd as minus the base-10 logarithm of the molar concentration.

// pKd value for KTPVIVVPVI : 5.21

Sample RVNHAKYMVT ; pKd observed: 5.98

Kindly note the recorded pKd for LAELLEMKYA , which is 5.98

For QQLCTMERT the sequence record lists pKd as 5.34

Just so you know, measured pKd for YIMRVMANNV came out at 8.71

Continuing:
pKd measured on LMSDNPKAST = 6.03

// FANVISKIYT : pKd value = 5.27

Given item YVKNGTKGKL , the value recorded as its pKd is 5.14

sequence SIPISELSRL , pKd observed: 7.22

---

# SYSTEM TESTED: HLA-B*07:02
# TEST NAME: IEDB peptide-MHC binding, purified MHC/competitive/radioactivity; filed as Kd, often an IC50 or EC50 that approximates it; bounds were set here for any values at or beyond the usual limits of such assays
# CONDITION INFO: source organism: Vaccinia virus WR
pKd: −log10 of the molar value.
MEASURED ATTRIBUTE: pKd

According to the records, this sequence IPSTVKTNLY displays pKd of ≤ 4.59

Further cases:
Record QPEKEIPEY . Reported pKd: ≤ 4.43

get_value(item= STCYVFGLY , readout=pKd) returns ≤ 4.11

Kindly note the recorded pKd for PPCQCTVQEF , which is ≤ 4.34

What the record says about LPEETNIGCA : pKd is ≤ 4.68

---

Overview of recorded Kd for various sequences
# SYSTEM TESTED: HLA-A*31:01
# TEST NAME: IEDB peptide-MHC binding, purified MHC/competitive/radioactivity; filed as Kd, often an IC50 or EC50 that approximates it; bounds were set here for any values at or beyond the usual limits of such assays
# CONDITION INFO: source organism: Vaccinia virus WR

Please review the entries below; each comes with its answer.
Entry CTFMIITSTK ; Kd = 169 nM

Measured Kd, IVPEFAKQY : ≥ 21300 nM

Kd in this record for CLEWLRAKR : 76.2 nM

Now look at this entry.
ETLNEYKQLY has a reported Kd of ≥ 41300 nM

---

# SYSTEM TESTED: HLA-A*03:01
# TEST NAME: IEDB peptide-MHC binding, purified MHC/competitive/radioactivity; filed as Kd, often an IC50 or EC50 that approximates it; bounds were set here for any values at or beyond the usual limits of such assays
# CONDITION INFO: source organism: SARS coronavirus Tor2
MEASURED ATTRIBUTE: pKd
Formally, pKd is defined as -log10 of the concentration c, with c in mol/L.

Check out these entries, answers already filled in.
Recorded result, QLPQGTTLPK , pKd: 7.28

Lookup result for AFSLDVSEK ; measured pKd: 4.92

The sequence listed as KVAGFAKFLK shows pKd equal to 8.07

Further cases:
Entry CLAVHECFVK ; pKd = 5.52

Short answer for GFAAYNRYR : pKd was 5.24

Looking up KQMYKTPTLK , I see its pKd listed as 8.64

---

Listed here are sequences together with their documented pKd.
# SYSTEM TESTED: HLA-A*02:03
# TEST NAME: IEDB peptide-MHC binding, purified MHC/competitive/radioactivity; filed as Kd, often an IC50 or EC50 that approximates it; bounds were set here for any values at or beyond the usual limits of such assays
# CONDITION INFO: source organism: Vaccinia virus WR
Please report pKd as the negative decimal logarithm of the molar concentration, giving only the number.

Solved cases below.
Lab note: measured pKd of IMSMMNITRL was 6.97

pKd reported for this sequence NITTLLNETA : 6.97

Okay, now this sequence:
Sure, the documented pKd for TICLKNEGV is 6.92

---

# SYSTEM TESTED: HLA-A*11:01
# TEST NAME: IEDB peptide-MHC binding, purified MHC/competitive/radioactivity; filed as Kd, often an IC50 or EC50 that approximates it; bounds were set here for any values at or beyond the usual limits of such assays
# CONDITION INFO: source organism: Vaccinia virus WR
MEASURED ATTRIBUTE: Kd (µM)
The answer is to be given in µM; state only the numeric part.

Worked set:
Kd recorded for this sequence, DLVKSSFVKK , is 0.177

response.value for TMRIYCSLFK (field: Kd) = 0.00021

Summary for this sequence, DIETAIRAGY : Kd is 5.72

***
Reported Kd for CTFMIITSTK was 1.12

Reported Kd for DLIKKSDAKR was 12.5

Record summary for DIFVSLVKK : reported Kd = 0.0278

Given item ETLNEYKQLY , the value recorded as its Kd is 12.4

Data point: SLFKNVRLLK ; Kd = 0.0132

Looking up QFVDINRNNK , I see its Kd listed as 0.662

The recorded Kd for entry IIVLFQRFLR equals 0.0443

Notebook: STCYVFGLY , Kd read as 0.00786

Please fill in: Kd reported for TAIKEVVMAY = 1.11

So, ISSVLTILYY ? Its Kd was 0.155

The measured Kd associated with FTSTNDKIK reads 0.0588

For this sequence ( VIILAALFMY ), measured Kd is 0.449

---

Form field: Kd (one value per entry).
# SYSTEM TESTED: HLA-A*68:01
# TEST NAME: IEDB peptide-MHC binding, purified MHC/competitive/radioactivity; filed as Kd, often an IC50 or EC50 that approximates it; bounds were set here for any values at or beyond the usual limits of such assays
# CONDITION INFO: source organism: Vaccinia virus WR
Return type: number; implicit unit nM.

GET /value?item= KLSSIKSKSR &field=Kd returns 18600

Reported Kd ( ITDNGPMPY ) = 2470

Value of Kd reported for the sequence TMRIYCSLFK is 26.7

Note to self: Kd recorded for KAPNVISSK was 155

Kd measured on DLIKKSDAKR = 13.9

---
The measured Kd associated with DIFVSLVKK reads 0.538

Lab book: Kd of QFVDINRNNK noted as 171

Form field Kd, entry ISSVLTILYY : 162

Input RLLHCVTESY . Output Kd: 598

Given item LTQIFEVYWY , the value recorded as its Kd is 936

Notebook: FIKYVNGWVK , Kd read as 1.13

Sample STTDAEACY ; Kd observed: 163

The sequence MLEGETKLY showed Kd equal to 17000

Per the records, this sequence ( WIKDIMTSTR ) has Kd equal to 22.7

Form field Kd, entry IIVLFQRFLR : 3.05

// sample FTSTNDKIK , its Kd was 113

Input EACYIYKSGK . Output Kd: 31.8

VFKDSFLRK yielded Kd of 776
